# Target or test system: P-gp-catalyzed transport of calcein AM in DU145TXR cells (Homo sapiens, UniProt P08183)
# Construct: DU145 human prostate cancer cells^52 as well as the multidrug resistant sub-line, DU145TXR; endogenous in cells; host or cells: DU145TXR (paclitaxel-selected sub-line of human DU145 prostate cancer cells)
# Sequence (P08183 whole entry): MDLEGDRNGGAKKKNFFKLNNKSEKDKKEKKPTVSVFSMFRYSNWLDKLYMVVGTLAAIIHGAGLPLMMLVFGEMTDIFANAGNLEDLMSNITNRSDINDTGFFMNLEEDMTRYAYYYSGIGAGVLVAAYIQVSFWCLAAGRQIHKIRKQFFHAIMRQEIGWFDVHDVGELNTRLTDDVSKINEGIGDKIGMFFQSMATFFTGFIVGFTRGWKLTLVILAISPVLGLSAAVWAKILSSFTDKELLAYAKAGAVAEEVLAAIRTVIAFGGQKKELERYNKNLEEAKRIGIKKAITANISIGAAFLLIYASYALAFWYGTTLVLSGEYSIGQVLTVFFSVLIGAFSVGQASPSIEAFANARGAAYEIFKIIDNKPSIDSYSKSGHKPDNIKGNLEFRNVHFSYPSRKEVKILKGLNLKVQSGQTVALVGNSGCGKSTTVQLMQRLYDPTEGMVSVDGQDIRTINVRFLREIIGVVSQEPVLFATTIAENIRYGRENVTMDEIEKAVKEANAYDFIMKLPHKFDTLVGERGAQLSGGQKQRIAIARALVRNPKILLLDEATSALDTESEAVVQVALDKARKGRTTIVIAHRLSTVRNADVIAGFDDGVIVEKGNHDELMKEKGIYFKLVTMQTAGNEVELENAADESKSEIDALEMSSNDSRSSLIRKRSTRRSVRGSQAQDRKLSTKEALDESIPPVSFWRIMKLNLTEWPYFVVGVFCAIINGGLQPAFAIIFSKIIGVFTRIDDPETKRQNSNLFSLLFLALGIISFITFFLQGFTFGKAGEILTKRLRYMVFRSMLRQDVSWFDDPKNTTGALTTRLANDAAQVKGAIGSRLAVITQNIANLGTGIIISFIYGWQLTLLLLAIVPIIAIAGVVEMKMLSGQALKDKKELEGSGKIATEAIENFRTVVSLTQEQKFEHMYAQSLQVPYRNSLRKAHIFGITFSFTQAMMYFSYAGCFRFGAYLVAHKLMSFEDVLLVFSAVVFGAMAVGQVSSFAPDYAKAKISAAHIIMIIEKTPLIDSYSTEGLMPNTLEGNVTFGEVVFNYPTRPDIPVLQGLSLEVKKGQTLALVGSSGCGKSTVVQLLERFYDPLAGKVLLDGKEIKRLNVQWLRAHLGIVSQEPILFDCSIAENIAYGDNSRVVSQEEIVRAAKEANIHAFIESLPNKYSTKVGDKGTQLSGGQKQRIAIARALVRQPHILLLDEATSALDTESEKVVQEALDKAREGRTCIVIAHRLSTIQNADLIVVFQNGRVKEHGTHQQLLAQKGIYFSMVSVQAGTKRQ
# Test: Calcein AM accumulation assay
# Type: cell-based
# Experimental parameters: after 6-hour pre-incubation, compared to parental 29
Parameter measured: Calcein accumulation in DU145TXR (in words)

[
  {
    "Compound": "COc1cc(NC(=O)CSCC(=O)Nc2cc(-c3cc(C)c(C)cc3C)nn2-c2ccccc2)cc(OC)c1OC [29-238]",
    "Recorded result": "remained strongest"
  },
  {
    "Compound": "Cc1cc(C)c(-c2cc(NC(=O)CSCC(=O)NCc3ccc(F)cc3)n(-c3ccccc3)n2)cc1C [29-286]",
    "Recorded result": "comparable to 29"
  },
  {
    "Compound": "Cc1cc(C)c(-c2cc(NC(=O)CSCC(=O)Nc3ccc4ncsc4c3)n(-c3ccccc3)n2)cc1C [29-255]",
    "Recorded result": "remained strongest"
  },
  {
    "Compound": "Cc1cc(C)c(-c2cc(NC(=O)CSCC(=O)NC(c3ccccc3)c3ccccc3)n(-c3ccccc3)n2)cc1C [29-280]",
    "Recorded result": "comparable to 29"
  }
]
